Could you please report measured TGI for the items listed next?
# Test system: SF-539 CNS
# test name: NCI tumour cell line growth inhibition, 48 h

Exam item: Query: TGI; subject: NC(=S)NN=Cc1ccccc1OCc1cccc(COc2ccccc2C=NNC(N)=S)n1
Marked response: > 34.6 µM

Exam item: What value of TGI has been recorded for this entry: c1ccc(-c2sc(-c3ccccc3)c3c2C(c2ccccc2)c2c(-c4ccccc4)sc(-c4ccccc4)c2C3c2ccccc2)cc1 (centres undefined)
Marked response: > 100 µM

Exam item: Tell me the measured TGI of N#Cc1ncc(-c2ccc(C(F)(F)F)cc2)c(NC2CCCCCC2)n1 , please.
Marked response: > 100 µM

Exam item: For Nc1ncc(-c2ccc3ncnc(N4CCc5cc(F)c(Cl)cc54)c3c2)cc1C=O , what is its reported TGI?
Marked response: > 100 µM

Exam item: Tell me the measured TGI of CN1C(=O)[C@@H](CC2CCCC2)N(C2CCCC2)c2nc(Nc3cc(Cl)c(O)c(Cl)c3)ncc21 , please.
Marked response: > 100 µM

Exam item: Entry under review: C/C=C(/C)C(=O)OC1C=C(CO)C(=O)C(OC(=O)C2(C)OC2C)C1C(C)C (centres undefined) . Reported TGI?
Marked response: 3.38 µM

Exam item: # lookup: TGI of Cc1ccc2c(-c3ccnc(Nc4cccc(C(F)(F)F)c4)n3)c(-c3ccccc3)nn2n1
Marked response: > 19.6 µM

Exam item: Please give the measured TGI for this compound: CCOC(=O)C1(C)C2=CC=C(O2)C(C)(C)C2=CC=C(O2)C(C)(C)C2=CC=C(O2)C(C)(C)C2=CC=C1O2
Marked response: > 100 µM

Exam item: Entry [pH]1p2[pH]p3p1p3[pH]2.c1cc[c]([Ge]([c]2ccccc2)[c]2ccccc2)cc1.c1cc[c]([Ge]([c]2ccccc2)[c]2ccccc2)cc1.c1cc[c]([Ge]([c]2ccccc2)[c]2ccccc2)cc1 has what TGI?
Marked response: 31.8 µM

Exam item: So what does the record say about TGI for CC(=O)Nc1ccc2cc(C#N)c(=O)[nH]c2n1 ?
Marked response: > 100 µM

Exam item: State the recorded TGI for this entry: NN/C(=N\S(=O)(=O)c1cc(S(=O)(=O)c2ccccc2)cs1)Nc1ccc(Cl)cc1
Marked response: > 100 µM

Exam item: Returns the measured TGI for the input compound. Input: Cn1cc(Nc2nccc(-c3ccc4c(c3)CN(C3COC3)CC[C@H]4NC(=O)c3cn(C(C)(C)C)nn3)n2)cn1
Marked response: > 100 µM

Exam item: Recorded TGI of CSc1ccccc1NC1=NCCO1 , please.
Marked response: > 100 µM

Exam item: Query: TGI; subject: CN(C)C/C=C/C(=O)Nc1ccc(C(=O)Nc2cccc(Nc3ncc(Cl)c(-c4c[nH]c5ccccc45)n3)c2)cc1
Marked response: 0.0575 µM

Exam item: May I ask what TGI has been recorded for Cc1cc2c3c(nc4ccccc42)C(=O)c2cccnc2-c3n1 ?
Marked response: 2.21 µM

Exam item: Please look up its TGI: CN1CCOC1(C)c1ccccc1 (centres undefined)
Marked response: > 100 µM

Exam item: Entry COC(=O)C1=C(C)NC(CF)=C(C(=O)OC)C1c1cccc2c(=O)c3ccccc3oc12 (centres undefined) : reported TGI = ?
Marked response: > 100 µM

Exam item: GET /values?readout=TGI&item= O=C(O)c1cc(-c2ccc(-c3ccccc3)cc2)nc2cc3ccccc3cc12
Marked response: > 100 µM

Exam item: Give its TGI value. Item: CN(C)CCNc1ncnc2nc(-c3ccccc3)c(-c3ccccc3)nc12
Marked response: > 100 µM

----------
# System: OVCAR-5 ovarian
# test name: NCI tumour cell line growth inhibition, 48 h
endpoint: TGI

Exam item: Please provide the recorded TGI for Oc1ccc(/C=N/NC(=S)Nc2ccccc2)nc1 , tested on OVCAR-5 ovarian.
Marked response: > 100 µM

Exam item: Lab note: need TGI with OVCAR-5 ovarian for entry CC1=CP(=O)(OC(C)C)C=C(C)C1=C(Cl)Cl (stereo unspecified) , please look it up.
Marked response: > 100 µM

Exam item: What TGI appears in the records for this compound with OVCAR-5 ovarian? O=C(Nc1ccc(C(F)(F)F)cc1[N+](=O)[O-])C(=O)Nn1c(=S)[nH]c2ccccc2c1=O
Marked response: > 100 µM

Exam item: Enter reported TGI observed with OVCAR-5 ovarian for CN(C)CC1CCCC/C1=N\OC(=O)c1ccccc1 (stereo unspecified)
Marked response: > 100 µM

Exam item: // fetch OVCAR-5 ovarian TGI for COC(=O)CSc1cc(Cl)c(C)cc1S(=O)(=O)Nc1n[nH]c(N)n1
Marked response: > 10 µM

Exam item: Give TGI (OVCAR-5 ovarian) of the following compound: CC(NC1=NCCO1)c1ccsc1 (stereo unspecified)
Marked response: > 100 µM

Exam item: Param readout = TGI; param system = OVCAR-5 ovarian; param query = CCN(CC)CC(C(C)=O)C(c1ccccc1)c1c(O)c2ccccc2oc1=O (stereo unspecified) ; response: value
Marked response: > 100 µM

Exam item: Return TGI measured with OVCAR-5 ovarian given this compound: O=C(CNc1ccc([N+](=O)[O-])cc1)Nn1c(-c2ccccc2)nc2ccccc2c1=O
Marked response: 16.3 µM

Exam item: Form field - read-out: TGI; system: OVCAR-5 ovarian; submitted item: O=Nn1c2ccccc2c2ccccc21
Marked response: > 100 µM

Exam item: Given the entry O=c1nc(N2CCCCC2)sc2[nH]c3ccccc3c12 , what TGI was observed with OVCAR-5 ovarian?
Marked response: 24.8 µM

Exam item: Can you look up TGI on OVCAR-5 ovarian for CC(=O)c1ccc(NC(=O)C(=O)CC(=O)c2sc(-n3nc(-c4ccccc4)cc3-c3ccccc3)nc2C)cc1 ?
Marked response: > 100 µM

----------
# Test system: RXF 393 renal
# test name: NCI tumour cell line growth inhibition, 48 h
endpoint: TGI (µM)
Give a bare numeral; the unit µM is implied.

Exam item: Which value of TGI has been reported for CC(=O)NC(CCc1ccc(Cl)c(Cl)c1)c1cccc(O)c(=O)c1 (stereo not drawn) in the records?
Marked response: 14.9

Exam item: Look at this compound and give its reported TGI. COc1cccc(N2C(=N)/C(=C3\Nc4ccccc4S3)CC2=O)c1
Marked response: 11.1

Exam item: Please look up its TGI: Cn1ccc(S(=O)(=O)N2CCC[C@H](Nc3nccc(-c4c(-c5cccc(O)c5)nc5occn45)n3)C2)n1
Marked response: 18.4

Exam item: Tell me the measured TGI of C[n+]1c(-c2ccc(/C=N\Nc3ccnc(N/N=C/c4ccc(-c5cn6ccsc6[n+]5C)cc4)n3)cc2)cn2ccsc21 , please.
Marked response: 56.3

Exam item: Dear colleague, I am looking for the recorded TGI of the following compound: C=C(Cl)[C@](Cl)(CBr)CC[C@@H](Br)C(C)(C)Cl
Marked response: 0.576

Exam item: Which TGI is listed for O=C(Cc1csc2[n+]1C(=O)/C(=C/c1ccc(Cl)cc1)S2)Nc1ccccc1 ?
Marked response: 42.6

Exam item: Find the recorded TGI belonging to COc1cc2c3c(n(CCCNCCCCN)c(=O)c2cc1OC)-c1cc2c(cc1C3=O)OCO2 and report it.
Marked response: 11.4

Exam item: TGI lookup needed for Cc1cc(C(O)CCCc2ccccc2)cc(C)c1O (stereo not drawn) , thanks.
Marked response: 60

Exam item: # lookup: TGI of O=C(NCCc1ccccn1)c1ccc2cc(C(=O)N3CC(CCl)c4ccc([N+](=O)[O-])cc43)[nH]c2c1 (stereo not drawn)
Marked response: 60.3

Exam item: Returns the measured TGI for the input compound. Input: Cc1ccc(/C=C(/C#N)n2nnc3cccc(F)c32)cc1
Marked response: 0.563
